Where these numbers come from: patent US11642336B2

- EXPERIMENTAL_SYSTEM: 5-HT1D (Homo sapiens (Human), UniProt P28221)
- Sequence (P28221 whole entry, looked up, species assumed): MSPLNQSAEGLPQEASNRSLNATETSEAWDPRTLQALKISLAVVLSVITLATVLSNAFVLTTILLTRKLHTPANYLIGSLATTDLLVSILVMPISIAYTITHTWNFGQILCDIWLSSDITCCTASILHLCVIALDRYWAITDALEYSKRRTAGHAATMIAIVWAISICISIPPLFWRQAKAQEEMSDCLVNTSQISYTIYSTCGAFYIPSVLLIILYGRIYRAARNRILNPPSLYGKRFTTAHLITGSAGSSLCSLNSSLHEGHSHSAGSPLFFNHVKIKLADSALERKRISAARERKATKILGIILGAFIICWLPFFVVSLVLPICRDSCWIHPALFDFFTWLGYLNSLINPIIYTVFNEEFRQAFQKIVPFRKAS
- TEST_DESCRIPTION: radioligand competition binding assay (Psychiatric Drug Screening Program)
- CONDITION_PARAMETERS: read-out: Ki (nM) 5-HT1D
READOUT_TYPE: Ki (nM)
Give a bare numeral; the unit nM is implied.

What measured Ki goes with COc1cc(C(F)(F)F)c(OC)cc1[C@@H]1CCCNC1.Cl [Compound 8, hydrochloride] ?
663

* * *

// reported 5-HT2C Rmax ± S.E.M per item
- EXPERIMENTAL_SYSTEM: 5-HT2C (Homo sapiens (Human))
- Sequence (P28335 whole entry, looked up): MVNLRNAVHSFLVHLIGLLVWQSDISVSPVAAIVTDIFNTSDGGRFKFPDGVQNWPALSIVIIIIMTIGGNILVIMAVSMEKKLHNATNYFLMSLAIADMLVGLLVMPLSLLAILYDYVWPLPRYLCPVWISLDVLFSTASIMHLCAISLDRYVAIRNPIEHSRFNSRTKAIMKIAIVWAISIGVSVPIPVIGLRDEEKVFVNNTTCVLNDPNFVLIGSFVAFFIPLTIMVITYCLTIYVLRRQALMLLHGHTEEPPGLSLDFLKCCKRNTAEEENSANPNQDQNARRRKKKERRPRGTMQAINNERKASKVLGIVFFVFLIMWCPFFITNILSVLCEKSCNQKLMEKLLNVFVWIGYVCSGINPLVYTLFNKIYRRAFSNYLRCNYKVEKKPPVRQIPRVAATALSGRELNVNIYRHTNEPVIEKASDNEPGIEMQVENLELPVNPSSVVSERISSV
- TEST_DESCRIPTION: Ca2+/Fluo-4 assay, stable h5-HT2C-HEK293 cell line;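 note: Agonist-induced intracellular Ca2+ rise read by Fluo-4 fluorescence in HEK293 cells stably expressing the human 5-HT2C receptor, each compound run in duplicate on three or more occasions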
- Type: cell-based
- CONDITION_PARAMETERS: % of the Rmax of 5-HT
Where a name gives a salt, the structure may show the parent alone.
Quick reminder: number only, in %, skip the unit.

| MOLECULE | 5-HT2C Rmax ± S.E.M (%) |
| --- | --- |
| COc1cc(C(F)(F)F)c(F)cc1[C@H]1CCCNC1.Cl [Compound 50] | 40 |
| COc1cc(CCNCc2ccccc2O)c(OC)cc1C#N [drawing 23, reference compound] | 96 |

Given the molecule COc1cc(C(F)(F)F)c(OC)cc1C1CCC(C)NC1 (single isomer, unassigned) [Compound 37, hydrochloride] , what is its reported 5-HT2C Rmax ± S.E.M?
33

Then this molecule: CCSc1cc([C@@H]2CCCNC2)c(OC)cc1C(F)(F)F.Cl [Compound 47]
43
